study_system: RXRα (Homo sapiens)
Sequence (P19793 227-458 limits assumed): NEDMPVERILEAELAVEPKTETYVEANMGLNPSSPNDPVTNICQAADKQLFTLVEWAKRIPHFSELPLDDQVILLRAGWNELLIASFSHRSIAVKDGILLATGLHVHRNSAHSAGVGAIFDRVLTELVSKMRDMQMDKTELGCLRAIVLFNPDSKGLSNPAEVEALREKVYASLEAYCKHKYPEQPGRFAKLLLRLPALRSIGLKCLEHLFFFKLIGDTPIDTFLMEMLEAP
protocol_summary: RXRα activation EC50 (Luc and GFP UAS/Gal4 assays)
For each of the compounds below, state its EC50.

Worked examples, 10 compounds total:
- compound: "Cc1cc2c(cc1N(C)c1ncc(C(=O)O)cn1)C(C)(C)COC2(C)C"
  EC50: "405 nM"
- compound: "Cc1cc2c(cc1N(C)c1ccc(C(=O)O)cn1)C(C)(C)COC2(C)C"
  EC50: "75 nM"
- compound: "Cc1cc2c(cc1-c1cc(/C=C/C(=O)O)ccc1O)C(C)(C)COC2(C)C"
  EC50: "3.9 nM"
- compound: "C=CCN(c1ccc(C(=O)O)cn1)c1cc2c(cc1C)C(C)(C)OCC2(C)C"
  EC50: "10.7 nM"
- compound: "CCN(c1ncc(C(=O)O)cn1)c1cc2c(cc1C)C(C)(C)OCC2(C)C"
  EC50: "152 nM"
- compound: "CCN(c1ccc(C(=O)O)cn1)c1cc2c(cc1C)C(C)(C)OCC2(C)C"
  EC50: "23.7 nM"
- compound: "C=CCN(c1ncc(C(=O)O)cn1)c1cc2c(cc1C)C(C)(C)OCC2(C)C"
  EC50: "143 nM"
- compound: "Cc1cc2c(cc1N(C)c1ccc(C(=O)O)cc1)C(C)(C)COC2(C)C"
  EC50: "87.7 nM"
- compound: "C=C(c1ccc(C(=O)O)cc1)c1cc2c(cc1C)C(C)(C)OCC2(C)C"
  EC50: "51 nM"
- compound: "CCN(c1ccc(C(=O)O)cc1)c1cc2c(cc1C)C(C)(C)OCC2(C)C"
  EC50: "23.1 nM"

Batch request: EC50 per item, same order as input.
1. Cc1cc2c(cc1-c1coc3cc(C(=O)O)ccc13)C(C)(C)COC2(C)C
2. C=CCN(c1ccc(C(=O)O)cc1)c1cc2c(cc1C)C(C)(C)CCC2(C)C
3. Cc1cc2c(cc1N(C)c1ncc(C(=O)O)cn1)C(C)(C)CCC2(C)C [Compound 24, reference compound]
4. C=CCN(c1ccc(C(=O)O)cn1)c1cc2c(cc1C)C(C)(C)CCC2(C)C
5. C=CCN(c1ccc(C(=O)O)cc1)c1cc2c(cc1C)C(C)(C)OCC2(C)C
6. Cc1cc2c(cc1N(C)c1ccc(C(=O)O)cn1)C(C)(C)CCC2(C)C
7. Cc1ccc(/C=C/C(=O)O)cc1-c1cc2c(cc1C)C(C)(C)OCC2(C)C

> 1000 nM
11.5 nM
6.2 nM
1.8 nM
116 nM
5.4 nM
65.3 nM

Short answer please: EC50, RXRα (Homo sapiens), entry CN(c1ccc2c(c1)C(C)(C)CCC2(C)C)c1ncc(C(=O)O)cn1 [Compound 25, reference compound] 17.8 nM
